attribute-measured: melting point (°C)

a: Cc1nc2c3c(ccc2n1C)[C@@H](O)[C@H](O)[C@@H](c1ccccc1)O3
b: COCCO[C@@H]1c2ccc3c(nc(C)n3C3CC3)c2O[C@H](c2ccccc2)[C@H]1O
c: C=CCn1c(C)nc2c3c(ccc21)[C@@H](OCCOC)[C@H](O)[C@@H](c1ccccc1)O3
d: C=CCn1c(C)nc2c3c(ccc21)[C@@H](OCCF)[C@H](O)[C@@H](c1ccccc1)O3
Data request: Sort the entries above by melting point, largest first. Write the labels, ordered according to the request.
Data returned: a, b, d, c

A: Cc1nc2c3c(ccc2n1C)[C@H]1OCCO[C@@H]1[C@@H](c1ccccc1)O3
B: CC=Cn1c(C)nc2c3c(ccc21)[C@H]1OCCO[C@@H]1[C@@H](c1ccccc1)O3
Data request: Smaller melting point value? Options are A and B // return label of chosen record
Data returned: B

1: Cc1nc2c3c(ccc2n1C)[C@@H](OCC(F)F)[C@H](O)[C@@H](c1ccccc1)O3
2: Cc1nc2c3c(ccc2[nH]1)[C@@H](O)[C@H](O)[C@@H](c1ccccc1)O3
3: CC=Cn1c(C)nc2c3c(ccc21)[C@@H](OCCOC)[C@H](O)[C@@H](c1ccccc1)O3
Data request: Reorder: melting point, max to min. Provide the ranking by listing each label in its place in the requested order.
Data returned: 1, 2, 3

a: COCCO[C@@H]1c2ccc3c(nc(C)n3C)c2O[C@H](c2ccccc2)[C@H]1OC(=O)COC
b: COCCO[C@H]1c2ccc3c(nc(C4CC4)n3C)c2O[C@H](c2ccccc2)[C@H]1O
Data request: Which of these two has the smaller recorded melting point: a or b ? The response must carry the label of the picked entry.
Data returned: b

I: Cc1nc2c3c(ccc2n1C)[C@@H](OCCF)[C@H](O)[C@@H](c1ccccc1)O3
II: COCCO[C@@H]1c2ccc3c(nc(C4CC4)n3C)c2O[C@H](c2ccccc2)[C@H]1O
Data request: Which gives the smaller melting point number: I or II ? To answer, give the label that identifies your chosen option.
Data returned: II
(II: 157 °C, I: 226 °C)

A: COCCO[C@@H]1c2ccc3c(nc(C)n3C)c2O[C@H](c2ccccc2)[C@H]1OC(=O)CN(C)C
B: Cc1nc2c3c(ccc2[nH]1)[C@H]1OCCO[C@@H]1[C@@H](c1ccccc1)O3
C: COCCO[C@@H]1c2ccc3[nH]c(C)nc3c2O[C@H](c2ccccc2)[C@H]1O
Data request: Output the entries ranked by melting point from maximum down to minimum. A complete answer lists every label in the requested sequence.
Data returned: B, A, C

* * *

attribute-measured: melting point (°C)

>  <chemical-structure>
COCCO[C@H]1c2ccc3c(nc(C)n3C3CC3)c2O[C@H](c2ccccc2)[C@H]1O

>  <readout-unit>
°C

>  <melting point>
218

$$$$
>  <chemical-structure>
CCO[C@@H]1c2ccc3c(nc(C)n3C)c2O[C@H](c2ccccc2)[C@H]1O

>  <readout-unit>
°C

>  <melting point>
222

$$$$
>  <chemical-structure>
COCCO[C@H]1c2ccc3c(nc(C)n3C)c2O[C@H](c2ccccc2)[C@H]1O

>  <readout-unit>
°C

>  <melting point>
163

$$$$

The values you see were collected from patent US20070244173A1.
